Molecular target: Cyclin-dependent kinase 1/cyclin B1 (Homo sapiens, UniProt P06493)
Sequence (P06493 whole entry): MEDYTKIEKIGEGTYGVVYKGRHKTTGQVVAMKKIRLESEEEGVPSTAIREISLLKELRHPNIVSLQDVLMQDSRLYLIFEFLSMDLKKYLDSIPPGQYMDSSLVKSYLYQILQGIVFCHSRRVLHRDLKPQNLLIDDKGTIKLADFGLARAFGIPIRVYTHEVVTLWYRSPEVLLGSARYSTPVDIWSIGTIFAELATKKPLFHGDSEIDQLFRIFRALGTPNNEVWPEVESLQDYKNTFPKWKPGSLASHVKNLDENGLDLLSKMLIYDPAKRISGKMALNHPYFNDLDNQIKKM
Sequence (P14635 whole entry, further chain): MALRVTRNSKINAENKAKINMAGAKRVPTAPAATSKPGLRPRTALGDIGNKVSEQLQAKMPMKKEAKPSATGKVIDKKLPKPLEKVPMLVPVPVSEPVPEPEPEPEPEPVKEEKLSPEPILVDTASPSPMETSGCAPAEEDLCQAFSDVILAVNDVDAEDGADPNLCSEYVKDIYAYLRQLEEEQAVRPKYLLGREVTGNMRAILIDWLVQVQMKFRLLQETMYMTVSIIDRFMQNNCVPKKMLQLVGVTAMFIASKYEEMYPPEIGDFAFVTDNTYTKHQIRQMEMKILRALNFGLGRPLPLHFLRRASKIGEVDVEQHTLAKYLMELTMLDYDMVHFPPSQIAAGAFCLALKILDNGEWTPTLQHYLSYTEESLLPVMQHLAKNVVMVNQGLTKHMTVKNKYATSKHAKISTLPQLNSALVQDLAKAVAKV
Test: Inhibition of CDK1/Cyclin B (unknown origin)
Below is a list of entries, each paired with its recorded pIC50 value.
Please express pIC50 as -log10 of the molar concentration.

{"smiles": "N#C/N=[N+](\\[O-])c1c(N)nc(Nc2ccc(S(=O)(=O)NCCO)cc2)nc1OCC1CCCCC1", "pIC50": 7.15}

Shifting focus to the compound that follows.
q: Query (compound): CNS(=O)(=O)c1ccc(Nc2nc(N)c(/[N+]([O-])=N/C#N)c(OCC3CCCCC3)n2)cc1 ; field requested: pIC50
a: 6.85

###

Target: CDK2/Cyclin A2 (Homo sapiens)
Assay: Inhibition of CDK2/Cyclin A (unknown origin)
readout_type: IC50

{"smiles": "NC(=O)/N=[N+](\\[O-])c1c(N)nc(N)nc1OCC1CCCCC1", "IC50": "53.3 µM"}
{"smiles": "N#C/N=[N+](\\[O-])c1c(N)nc(Nc2ccc(S(=O)(=O)NCCO)cc2)nc1OCC1CCCCC1", "IC50": "0.0025 µM"}
{"smiles": "N#C/N=[N+](\\[O-])c1c(N)nc(N)nc1OCC1CCCCC1", "IC50": "0.94 µM"}

q: Which IC50 value is on record for CNS(=O)(=O)c1ccc(Nc2nc(N)c(/[N+]([O-])=N/C#N)c(OCC3CCCCC3)n2)cc1 ?
a: 0.0039 µM

###

Target: Cyclin-dependent kinase 7/ cyclin H (Homo sapiens, UniProt P50613)
Sequence (P51946 whole entry): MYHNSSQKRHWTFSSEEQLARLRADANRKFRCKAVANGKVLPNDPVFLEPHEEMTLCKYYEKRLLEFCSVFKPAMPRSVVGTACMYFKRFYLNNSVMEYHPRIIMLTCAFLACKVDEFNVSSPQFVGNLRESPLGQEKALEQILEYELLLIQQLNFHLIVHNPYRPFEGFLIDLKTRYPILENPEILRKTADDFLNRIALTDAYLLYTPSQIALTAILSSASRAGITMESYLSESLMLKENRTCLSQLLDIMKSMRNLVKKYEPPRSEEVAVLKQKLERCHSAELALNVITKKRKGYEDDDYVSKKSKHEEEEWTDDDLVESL
Sequence (P50613 whole entry): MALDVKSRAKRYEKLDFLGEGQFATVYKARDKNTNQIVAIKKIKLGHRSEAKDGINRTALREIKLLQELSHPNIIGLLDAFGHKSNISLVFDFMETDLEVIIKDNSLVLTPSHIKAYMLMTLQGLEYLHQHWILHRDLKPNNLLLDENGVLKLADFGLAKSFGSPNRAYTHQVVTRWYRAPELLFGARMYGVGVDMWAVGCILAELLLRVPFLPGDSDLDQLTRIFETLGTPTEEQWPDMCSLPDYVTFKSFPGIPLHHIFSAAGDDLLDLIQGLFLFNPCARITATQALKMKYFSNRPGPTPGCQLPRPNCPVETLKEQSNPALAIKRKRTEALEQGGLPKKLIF
Assay: Inhibition of CDK7/Cyclin H (unknown origin)
readout_type: IC50

{"smiles": "CNS(=O)(=O)c1ccc(Nc2nc(N)c(/[N+]([O-])=N/C#N)c(OCC3CCCCC3)n2)cc1", "tgt": "Cyclin-dependent kinase 7/ cyclin H (Homo sapiens, UniProt P50613)", "result": "1500 nM"}

// next item, IC50 requested
q: I am curious: what IC50 value has been reported for N#C/N=[N+](\[O-])c1c(N)nc(Nc2ccc(S(=O)(=O)NCCO)cc2)nc1OCC1CCCCC1 ?
a: 1550 nM
